Test system: MYB mRNA
experimental.protocol: Splicing RT-qPCR assay, MYB canonical (CJ) and alternative (AJ) junction mRNA
Format: cell-based, human
applied.conditions: Homo sapiens; canonical junction mRNA, RT-qPCR, A673 or K562 cells, 24 hours treatment; read-out: MYB CJ (IC50, decrease in CJ mRNA)
Structures can show the parent of a compound that is named as a salt.
observed.property: IC50

molecule: Cn1cc2cc(-c3cc(Cl)c4cc(N5CCNCC5)cnc4n3)c(O)cc2n1
observed.property: IC50
recorded.value: < 0.1 µM
--
molecule: CN[C@H]1CCN(c2cnc3nc(-c4cc5cn(C)nc5c(C)c4O)cc(Cl)c3c2)C1.Cl
observed.property: IC50
recorded.value: < 0.1 µM
--
molecule: C[C@@H]1CN(c2cnc3nc(-c4cc5cn(C)nc5cc4O)cc(Cl)c3c2)C[C@@H](C)N1 [Compound 243, hydrochloride]
observed.property: IC50
recorded.value: 0.1 to 1 µM
--
molecule: C[C@H]1CN(c2cnc3nc(-c4cc(F)c5nn(C)cc5c4)cc(Cl)c3c2)C[C@@H](C2CC2)N1
observed.property: IC50
recorded.value: 0.1 to 1 µM
--
molecule: CN[C@@H]1CN(c2cnc3nc(-c4cc5cn(C)nc5c(C)c4O)ccc3c2)C[C@H]1F (single isomer, unassigned)
observed.property: IC50
recorded.value: < 0.1 µM
--
molecule: CN[C@@H]1CCN(c2cnc3nc(-c4cc5cn(C)nc5c(C)c4O)ccc3c2)C1
observed.property: IC50
recorded.value: < 0.1 µM
--
molecule: CN[C@@H]1CN(c2cnc3nc(-c4cc5cn(C)nc5c(C)c4O)ccc3c2)C[C@H]1C
observed.property: IC50
recorded.value: 0.1 to 1 µM
--
molecule: Cc1cn2nc(-c3ccc4c(Cl)c(N5C[C@H](C)N[C@@H](C)C5)cnc4n3)cc(C)c2n1
observed.property: IC50
recorded.value: < 0.1 µM
--
molecule: Cc1c(O)c(-c2cc(Cl)c3cc(N(C)C4CCNC4)cnc3n2)cc2cn(C)nc12 (stereo not drawn)
observed.property: IC50
recorded.value: 0.1 to 1 µM
--
molecule: Cn1cc2cc(-c3ccc4cc(N5CC[C@H](NCC6CC6)C5)cnc4n3)c(O)cc2n1
observed.property: IC50
recorded.value: 0.1 to 1 µM
--
molecule: CN(C)[C@@H]1CCN(c2cnc3nc(-c4cc5cn(C)nc5c(F)c4O)cc(Cl)c3c2)C1
observed.property: IC50
recorded.value: < 0.1 µM
--
molecule: Cc1c(O)c(-c2cc(Cl)c3cc(N4CCNC(C)C4)cnc3n2)cc2cn(C)nc12 (stereo not drawn)
observed.property: IC50
recorded.value: 0.1 to 1 µM
--
molecule: Cc1c(O)c(-c2cc(C#N)c3cc(N4C[C@H](C)N[C@@H](C)C4)cnc3n2)cc2cn(C)nc12
observed.property: IC50
recorded.value: < 0.1 µM
--
molecule: Cn1cc2cc(-c3cc(Cl)c4cc(N5CC[C@@H](N6CCC6)C5)cnc4n3)c(O)cc2n1
observed.property: IC50
recorded.value: 0.1 to 1 µM
--
molecule: Cc1c(O)c(-c2cc(-c3nnc[nH]3)c3cc(N4C[C@@H](C)N[C@@H](C)C4)cnc3n2)cc2cn(C)nc12
observed.property: IC50
recorded.value: 1 to 10 µM

* * *

Test system: MYB mRNA
experimental.protocol: Splicing RT-qPCR assay, MYB canonical (CJ) and alternative (AJ) junction mRNA
Assay type: cell-based, human
applied.conditions: Homo sapiens; canonical junction mRNA, RT-qPCR, A673 or K562 cells, 24 hours treatment; read-out: MYB CJ (IC50, decrease in CJ mRNA)
pIC50: −log10 of the molar value. Where a name gives a salt, the structure may show the parent alone.
observed.property: pIC50

compound: Cn1cc2cc(-c3ccc4cc(N5CCC(NC(C)(C)C)C5)cnc4n3)c(O)cc2n1 (stereo not shown) [Compound 134, hydrochloride]
experimental.target: MYB mRNA
recorded.value: 6.00 to 7.00

compound: CCN[C@@H]1CCN(c2cnc3nc(-c4cc5cn(C)nc5c(C)c4O)ccc3c2)C1
experimental.target: MYB mRNA
recorded.value: > 7.00

compound: Cc1cn2nc(-c3cc(Cl)c4cc(N5C[C@H](C)NC6(CC6)C5)cnc4n3)cc(C)c2n1
experimental.target: MYB mRNA
recorded.value: 6.00 to 7.00

compound: CNC1CCN(c2cnc3nc(-c4cc(F)c5nc(C)cn5c4)ccc3c2)C1 (stereo not shown)
experimental.target: MYB mRNA
recorded.value: > 7.00

compound: Cc1c(O)c(-c2cc(Cl)c3cc(N4C[C@@H](C)N[C@@H](C)C4)cnc3n2)cc2cn(C)nc12
experimental.target: MYB mRNA
recorded.value: > 7.00

compound: Cn1cc2cc(-c3ccc4cc(N5CC[C@@H](NC(C)(C)C)C5)cnc4n3)c(O)cc2n1
experimental.target: MYB mRNA
recorded.value: 5.00 to 6.00

compound: CNC1CCN(c2cnc3nc(-c4cc5cn(C)nc5c(C)c4O)cc(Cl)c3c2)C1 (stereo not shown)
experimental.target: MYB mRNA
recorded.value: > 7.00

compound: Cc1c(O)c(-c2ccc3c(Cl)c(N4C[C@@H](C)N[C@@H](C)C4)cnc3n2)cc2cn(C)nc12
experimental.target: MYB mRNA
recorded.value: > 7.00

compound: Cn1cc2cc(-c3cnc4cc(N5CC[C@@H](NC6CC6)C5)ccc4n3)c(O)c(F)c2n1
experimental.target: MYB mRNA
recorded.value: > 7.00

compound: Cn1cc2cc(-c3cnc4nc(N5CCC(NC6CC6)C5)ccc4n3)c(O)c(F)c2n1 (stereo not shown)
experimental.target: MYB mRNA
recorded.value: > 7.00

compound: CNC1CCN(c2cnc3nc(-c4cc5cn(C)nc5cc4O)cc(Cl)c3c2)C1 (stereo not shown)
experimental.target: MYB mRNA
recorded.value: > 7.00

compound: CNC1CCN(c2cnc3nc(-c4cc5cn(C)nc5c(C)c4O)cc(Cl)c3n2)C1 (stereo not shown)
experimental.target: MYB mRNA
recorded.value: > 7.00

compound: Cc1cn2nc(-c3ccc4cc(N(C)C5CCNCC5)cnc4n3)cc(C)c2n1
experimental.target: MYB mRNA
recorded.value: 5.00 to 6.00

compound: CN(c1cnc2nc(-c3cc4cn(C)nc4c(F)c3O)cc(Cl)c2c1)[C@H]1CCNC1
experimental.target: MYB mRNA
recorded.value: > 7.00

compound: CCN[C@H]1CCN(c2cnc3nc(-c4cc5cn(C)nc5cc4O)ccc3c2)C1 [Compound 311, hydrochloride]
experimental.target: MYB mRNA
recorded.value: 6.00 to 7.00

compound: COc1nc(-c2cc3cn(C)nc3c(C)c2O)nc2ncc(N3CCNCC3)cc12
experimental.target: MYB mRNA
recorded.value: > 7.00

* * *

Test system: SMN2 mRNA
experimental.protocol: Splicing RT-qPCR panel, SMN2 canonical junction (CJ) mRNA
Type: cell-based, human
applied.conditions: Homo sapiens, read-out: SMN2 CJ (decrease in CJ mRNA levels, IC50)
pIC50: −log10 of the molar value.
// values below are reported pIC50
observed.property: pIC50

structure.notation: C[C@H]1CN(c2cnc3nc(-c4cc(F)c5nn(C)cc5c4)cc(Cl)c3c2)C[C@@H](C2CC2)N1
recorded.value: > 7.00

structure.notation: Cc1cn2nc(-c3ccc4cc(NC5CCNCC5)cnc4n3)cc(C)c2n1
recorded.value: 6.00 to 7.00

structure.notation: Cc1cc(-c2cc3cn(C)nc3c(C)c2O)nc2ncc(N3CCNCC3)cc12
recorded.value: > 7.00

structure.notation: Cc1c(O)c(-c2cc(-c3nnc[nH]3)c3cc(N4C[C@@H](C)N[C@@H](C)C4)cnc3n2)cc2cn(C)nc12
recorded.value: > 7.00

* * *

Tested on: SMN2 mRNA
experimental.protocol: Splicing RT-qPCR panel, SMN2 canonical junction (CJ) mRNA
Type: cell-based, human
applied.conditions: Homo sapiens, read-out: SMN2 CJ (decrease in CJ mRNA levels, IC50)
// values below are reported IC50

compound: C[C@H]1CN(c2cnc3nc(-c4cc5cn(C)nc5cc4O)cc(Cl)c3c2)CC2(CC2)N1
IC50: < 100 nM
--
compound: Cc1c(O)c(-c2ccc3cc(N4CCNCC4)cnc3n2)cc2cn(C)nc12
IC50: < 100 nM
--
compound: CN1CCC[C@H]2CN(c3cnc4nc(-c5cc6cn(C)nc6c(F)c5O)cc(Cl)c4c3)C[C@H]21
IC50: < 100 nM
--
compound: CN[C@H]1CCN(c2cnc3nc(-c4cc(C)c5nc(C)cn5n4)cc(Cl)c3c2)C1
IC50: < 100 nM
--
compound: C[C@@H]1CN(c2cnc3nc(-c4cc(F)c5nn(C)cc5c4)cc(Cl)c3c2)CC2(CC2)N1
IC50: < 100 nM
--
compound: Cc1c(O)c(-c2cc(Cl)c3cc(N(C)C4CCNC4)cnc3n2)cc2cn(C)nc12 (centres unmarked)
IC50: < 100 nM
--
compound: COc1nc(-c2cc3cn(C)nc3c(F)c2O)nc2ncc(N3C[C@@H](C)N[C@@H](C)C3)cc12
IC50: < 100 nM
--
compound: Cc1cn2nc(-c3cc(Cl)c4cc(N5CCC(N6CCC6)CC5)cnc4n3)cc(C)c2n1
IC50: < 100 nM
